# System: Staphylococcus aureus
# runDescription: Antibacterial activity against Staphylococcus aureus ATCC 29213 assessed as bacterial growth inhibition at 50 ug/disk measured after 24 to 72 hrs by disk diffusion assay
# Assay type: functional, organism-based
# conditionSet: time 24-72 hrs
Active and inactive are the calls of the source. The rule behind the calls is not given here. Square brackets hold non-standard residues; d marks the D form. Peptide text beside a SMILES is read from it. ξ: configuration not given here. NMeF = CN[C@@H](Cc1ccccc1)C(=O)O; Ile(3ξ) = CCC(C)[C@H](N)C(=O)O; NMeL = CN[C@@H](CC(C)C)C(=O)O; NMeV = CN[C@H](C(=O)O)C(C)C
Write down the outcome that applies. Available outcomes: label 1 (active), label 0 (inactive)

Would you mind telling me which call this test gave O=C1N/C(=C\c2ccccc2)C(=O)N2CCCC12 (stereo unspecified) ?
label 0

For O=C1N[C@@H](Cc2ccccc2)C(=O)N2CCC[C@@H]12 , which call appears in the assay record?
label 0

Recorded call for O=C1/C(=C/c2ccccc2)NC(=O)C2(O)CCCN12 (stereo unspecified) ?
label 0

Each molecule tested received a call. Report the one for CCC(C)[C@@H]1NC(=O)[C@H](CC(C)C)N(C)C(=O)[C@H](C(C)C)N(C)C(=O)[C@H](C)NC(=O)[C@H](Cc2ccccc2)N(C)C(=O)[C@@H]2CCCN2C(=O)[C@H](C(C)C)NC(=O)[C@H](CC(C)C)N(C)C1=O (stereo partly specified) (cyclo(A[NMeV][NMeL][Ile(3ξ)][NMeL]VP[NMeF])) .
label 1

Can you look up the reported call for CN1C(=O)C2CCCN2C(=O)/C1=C/c1ccccc1 (stereo unspecified) for me?
label 0

Write down the call the test reported for this molecule. Item: CC(C)C[C@H]1C(=O)N[C@@H](C(C)C)C(=O)N2CCC[C@H]2C(=O)N(C)[C@@H](Cc2ccccc2)C(=O)N[C@@H](C)C(=O)N(C)[C@@H](C(C)C)C(=O)N(C)[C@@H](CC(C)C)C(=O)N[C@@H](C(C)C)C(=O)N1C (cyclo(A[NMeV][NMeL]V[NMeL]VP[NMeF]))
label 1
